Attribution: patent US7728146B2

This section lists log10 of IC50 readings for DP9 (Homo sapiens).
Annotation: log10 of IC50, µM basis.

Some molecules with known log10 of IC50 results, for comparison:
{"columns": ["molecule", "measurement.target", "log10 of IC50"],
 "data": [
  ["NCc1c(-c2ccc(Cl)cc2Cl)ncn1CCc1ccccc1Cl [Example 21b]", "DP9 (Homo sapiens)", 0.11],
  ["NCc1c(-c2ccc(Cl)cc2Cl)ncn1Cc1ccccc1OC(F)(F)F [Example 129b]", "DP9 (Homo sapiens)", 1.73],
  ["NCc1c(-c2ccc(Cl)cc2Cl)ncn1Cc1ccsc1 [Example 130b]", "DP9 (Homo sapiens)", 1.99]
]}

Take each entry in turn and give its log10 of IC50.
1. CCOc1ccccc1Cn1cnc(-c2ccc(Cl)cc2Cl)c1CN [Example 128b]
2. NCc1c(-c2ccc(Cl)cc2Cl)ncn1Cc1ccc2c(c1)OCO2 [Example 125b]
3. NCc1c(-c2ccc(Cl)cc2Cl)ncn1Cc1ccccc1Cl [Example 81b]
4. NCc1c(-c2ccc(Cl)cc2Cl)ncn1CCCn1ccnc1 [Example 104b]
5. NCc1c(-c2ccc(Cl)cc2Cl)ncn1CCCCCO [Example 38b]
6. COc1ccccc1Cn1cnc(-c2ccc(Cl)cc2Cl)c1CN [Example 120b]

Ans:
1. 1.54
2. 1.87
3. 1.58
4. 1.24
5. 1.67
6. 1.78

Take each entry in turn and give its log10 of IC50.
1. CC(C)(C)CCn1cnc(-c2ccc(Cl)cc2Cl)c1CN [Example 23b]
2. NCc1c(-c2ccc(Cl)cc2Cl)ncn1C(CO)c1ccccc1 (centres unmarked) [Example 126b]

Ans:
1.75
1.85

====

measurement.notes: Blood-brain distribution / LogBB
Assay type: in vivo
particulars: Wistar (Crl:WI), rat, brain and plasma, iv; male Wistar rats, bolus plus 60 min continuous i.v. infusion
parameter: Kp at 60 min
Answers are plain numbers.

{"columns": ["compound", "obs.value"],
 "data": [
  ["NCc1c(-c2ccc(Cl)cc2Cl)ncn1Cc1cccnc1 [Example 121b]", 0.214],
  ["NCc1c(-c2ccc(Cl)cc2Cl)ncn1Cc1ccccn1 [Example 39b]", 0.275],
  ["NCc1c(-c2ccc(Cl)cc2Cl)ncn1Cc1ccsc1 [Example 130b]", 0.23]
]}

// switching to the query compound
Q: Give reported Kp at 60 min value for NCc1c(-c2ccc(Cl)cc2Cl)ncn1Cc1ccccc1 [Example 24b]
Ans: 0.483

====

measurement.notes: Bioavailability studies (pharmacokinetics after oral and intraarterial administration)
Format: in vivo, rat
particulars: Wistar (Crl:WI), rat, plasma; male Wistar rats, intraarterial 3 mg/kg, hydrochloride salt, Mean ± SD; N = 4-6
Experimental: Male Wistar rats (N=25; Crl:WI) with a body weight ranging between 300 and 350 g were purchased from Harlan Winkelmann GmbH (Borchen, Germany). All studycompounds were used in the form of the hydrochloride salt. […] Plasma levels of the DP IV inhibitors were determined by measurement of plasma DP IV activity under standardized conditions using Gly-Pro-pNA as substrate. […] F (in %) was calculated from the ratio of observed AUC upon oral route of administration to the AUC upon intraarterial administration.
Hi there, I'd appreciate the recorded AUC(0-inf) for every entry that follows.
Answers are plain numbers, in ng·h/mL.

Some compounds with known AUC(0-inf) results, for comparison:
{"columns": ["compound", "unit.spec", "AUC(0-inf)"],
 "data": [
  ["NCc1c(-c2ccc(Cl)cc2Cl)ncn1Cc1ccsc1 [Example 130b]", "ng·h/mL", 2470],
  ["NCc1c(-c2ccc(Cl)cc2Cl)ncn1Cc1ccccc1 [Example 24b]", "ng·h/mL", 640],
  ["NCc1c(-c2ccc(Cl)cc2Cl)ncn1Cc1ccccn1 [Example 39b]", "ng·h/mL", 410]
]}

// switching to the query compound
Q: Give reported AUC(0-inf) value for NCc1c(-c2ccc(Cl)cc2Cl)ncn1Cc1cccnc1 [Example 121b]
Ans: 630

====

measurement.notes: Bioavailability studies (pharmacokinetics after oral and intraarterial administration)
Type: in vivo, rat
particulars: Wistar (Crl:WI), rat, plasma; male Wistar rats, oral 3 mg/kg, hydrochloride salt, Mean ± SD; N = 5
parameter: AUC(0-inf) (ng·h/mL)
Answers are plain numbers, in ng·h/mL.

Some compounds with known AUC(0-inf) results, for comparison:
{"columns": ["compound", "unit.spec", "AUC(0-inf)"],
 "data": [
  ["NCc1c(-c2ccc(Cl)cc2Cl)ncn1Cc1ccccc1 [Example 24b]", "ng·h/mL", 650],
  ["NCc1c(-c2ccc(Cl)cc2Cl)ncn1Cc1ccsc1 [Example 130b]", "ng·h/mL", 2330],
  ["NCc1c(-c2ccc(Cl)cc2Cl)ncn1Cc1cccnc1 [Example 121b]", "ng·h/mL", 350]
]}

Q: Give reported AUC(0-inf) value for NCc1c(-c2ccc(Cl)cc2Cl)ncn1Cc1ccccn1 [Example 39b]
Ans: 290

====

Hi there, I'd appreciate the recorded pIC50 for every entry that follows.
measurement.target: DP IV (Homo sapiens, UniProt P27487)
measurement.notes: DP IV inhibition IC50, parallel-synthesis compounds tested directly following synthesis (without purification)
Type: biochemical
Design: IC50 DP4; other: tested directly following parallel synthesis, without purification; compounds of formula (Ib) from parallel synthesis, tested directly following synthesis
particulars: tested directly following parallel synthesis, without purification; read-out: IC50 DP4
Description: Compounds were immediately tested regarding their activity as DP IV inhibitors. Substances are screened for inhibition of dipeptidyl peptidase (DP IV) by their ability to inhibit the hydrolysis of the DP IV specific substrate Glycyl-Prolyl-4-Nitroanilide (Gly-Pro-pNA). […] The method was automated using a Tecan Genesis Freedom liquid handler and a Genius Pro (Tecan) microplate reader. […] After short mixing (20 s) the release of 4-Nitroanilin (pNA) is monitored at 405 nm for 30 cycles (approx. 18 min). […]
Numbers only, as −log10 of the molar value.

Some compounds with known pIC50 results, for comparison:
{"columns": ["compound", "measurement.target", "parameter", "obs.value"],
 "data": [
  ["Cc1ccc(-c2ncn(Cc3cc(Br)ccc3F)c2CN)c(C)c1 [Example 68a]", "DP IV (Homo sapiens, UniProt P27487)", "pIC50", 4.42],
  ["NCc1c(-c2ccc(F)cc2F)ncn1Cc1cccnc1 [Example 89a]", "DP IV (Homo sapiens, UniProt P27487)", "pIC50", 4.65]
]}

Take each entry in turn and give its pIC50.
1. NCc1c(-c2ccc(Cl)cc2Cl)ncn1Cc1ccc(F)c(F)c1 [Example 49a]
2. NCc1c(-c2ccc(F)cc2Cl)ncn1Cc1cc(Br)ccc1F [Example 12a]
3. Cn1cccc1Cn1cnc(-c2ccc(Cl)cc2Cl)c1CN [Example 64a]
4. NCc1c(-c2ccc(F)cc2Cl)ncn1Cc1ccccc1Cl
5. NCc1c(-c2ccc(F)cc2Cl)ncn1Cc1ccccc1F [Example 28a]
6. NCc1c(-c2ccc(F)cc2F)ncn1Cc1ccccc1Cl [Example 73a]

Ans:
1. 7.00
2. 4.49
3. 4.57
4. 4.74
5. 4.72
6. 4.57

====

measurement.target: DP IV (Homo sapiens, UniProt P27487)
measurement.notes: DP IV inhibition IC50, parallel-synthesis compounds tested directly following synthesis (without purification)
Type: biochemical
Set-up: IC50 DP4; other: tested directly following parallel synthesis, without purification; compounds of formula (Ib) from parallel synthesis, tested directly following synthesis
particulars: DP IV inhibition; compounds of formula (Ib) from parallel synthesis, tested directly following synthesis (without purification); read-out: IC50
parameter: pIC50
Give bare numbers, as −log10 of the molar value.

Take each entry in turn and give its pIC50.
1. NCc1c(-c2ccc(Cl)cc2Cl)ncn1CCO [56b]
2. COc1ccc(Cn2cnc(-c3ccc(Cl)cc3Cl)c2C(C)N)cc1OC (centres unmarked) [95b]
3. COc1ccc(Cn2cnc(-c3ccc(Cl)cc3Cl)c2CN)cc1OC
4. NCc1c(-c2ccc(Cl)cc2Cl)ncn1CCc1cccc(Cl)c1 [52b]
5. CC(N)c1c(-c2ccc(Cl)cc2Cl)ncn1CCC1=CCCCC1 (centres unmarked) [71b]
6. CC(C)CCCCCCn1cnc(-c2ccc(Cl)cc2Cl)c1C(C)N (centres unmarked) [51b]
7. NCCCc1c(-c2ccc(Cl)cc2Cl)ncn1Cc1cc(Br)ccc1F [30b]

Ans:
1. 4.70
2. 4.70
3. 4.70
4. 5.26
5. 4.45
6. 4.42
7. 4.76

Q: // fetch pIC50 for Cc1cnc(Cn2cnc(-c3ccc(Cl)cc3Cl)c2CN)cn1 [27b] ; system: DP IV (Homo sapiens, UniProt P27487)
Ans: 4.70

====

Tested on: Caco-2 monolayer
measurement.notes: Caco-2 transport assay
Assay type: in vitro ADME, human
particulars: assessment of permeability and transport type

{"columns": ["compound", "Transport"],
 "data": [
  ["NCc1c(-c2ccc(Cl)cc2Cl)ncn1Cc1ccccn1 [Example 39b]", "good, passive"],
  ["COc1cccc(Cn2cnc(-c3ccc(Cl)cc3Cl)c2CN)c1 [Example 59b]", "good, passive"]
]}
